assay: xn = mol fraction of the nth substance listed, in the solute-free solvent; settings: 293.15 K; x2 = 0.1666
# Lookup of reported solubility (g/100 g solution) keyed by entry
Quick one: just the number, no unit, thanks!

Completed entries (count: 4):
Return solubility (g/100 g solution) (reported value) for this molecule: COC(=O)C1=C(C)NC(C)=C(C(=O)OCC(C)C)C1c1ccccc1[N+](=O)[O-] (stereo not given) + CC(C)O + O 3.18

Return solubility (g/100 g solution) (reported value) for this molecule: O=[N+]([O-])c1cc[nH]n1 + CCCO + O 1.43

Return solubility (g/100 g solution) (reported value) for this molecule: CC(=O)Nc1ccc(OC(=O)c2ccccc2OC(C)=O)cc1 + CC(C)O + O 0.0633

Return solubility (g/100 g solution) (reported value) for this molecule: CS(=O)(=O)c1ccc(C(O)C(CF)NC(=O)C(Cl)Cl)cc1 (stereo not given) + CC(C)O + O 0.472

Moving on to another molecule below.
Return solubility (g/100 g solution) (reported value) for this molecule: COC(=O)C1=C(C)NC(C)=C(C(=O)OCC(C)C)C1c1ccccc1[N+](=O)[O-] (stereo not given) + CCCO + O 2.56

Where do the numbers come from? From the CheMixHub drug solubility set.
